meta.source: the kinase profiling compilation of Christmann-Franck et al. (2016)

target: EPHA2 (human); assay: radiometric filter-binding kinase assay; details: compound 0.01 µM
The entries below are paired with their reported residual activity.
Reported property: residual activity (%)

CNc1nc(-c2ccc3c(N)n[nH]c3c2)cc(N2C[C@@H](C(=O)NC3CCCCC3)CC[C@H]2C)n1
110
COc1ccc(N(C(=O)Nc2c(C)cccc2C)c2cc(Nc3ccc(N4CCN(C)CC4)cc3)ncn2)c(OC)c1
51
CNC(=O)C1[C@H]2O[C@@](C)([C@@H]1N)n1c3ccccc3c3c4c(c5c6ccccc6n2c5c31)C(=O)NC4 (stereo partly specified)
92
O=C(Nc1nc2cc(C(F)(F)F)cc(NC3CC3)n2n1)c1cccnc1
95
COc1cc(O)c2c(c1)[C@H]1OC1C[C@H](O)[C@H](O)C(=O)/C=C\C[C@H](C)OC2=O (stereo partly specified)
97
C/C(=C1/C(=O)Nc2ccc(NC(N)=O)cc21)c1ccc[nH]1
101
